Measured values drawn from patent US20230080534A1 for this set.

target: T1, QIEKLAEGKSQIQ (not fully specified); assay: ELISA, immobilized peptide QIEKLAEGKSQIQ
T1 construct: member of the group m41; the text speaks of glycine substitution, the sheet prints alanine
T1 peptide: QIEKLAEGKSQIQ
No end group written: not given here.
RECORDED ENDPOINT: OD450 absorbance

BINDER: MM02 (antibody, IgG2b, V domains shown) VH: QIQLVQSGPEVKKPGETVRISCKASGYTLTTAGIQWVQKMPGKGLKWIGWINTHSGVPEYAEDFKGRFAFFLETSASTAYLQISNLKNEDTATYFCARLGLLGYWGQGTTLTVSS VL: DILLTQSPAILSVSPGERVSFSCRASQSIGTTIHWYQQRTNGSPRLLIKYASESISGIPSRFSGSGSGTDFTLSINSVESEDIADYYCQQSNSWPWTFGGGTKLEIKR
VALUE: 0.928
